Source of measurements: patent US20230240966

- Experimental target: T1, Suc-AAPA-pNA
- T1 chain: AAPA
- Experimental parameters: scale: relative to the substrate with the highest activity
Catalogue of relative activity (initial increase in OD405) readings, one per entry.
Reply: number alone, nothing else.

Example entries begin here.
• Subtilisin Carlsberg from Bacillus licheniformis (protein) AQTVPYGIPLIKADKVQAQGFKGANVKVAVLDTGIQASHPDLNVVGGASFVAGEAYNTDGNGHGTHVAGTVAALDNTTGVLGVAPSVSLYAVKVLNSSGSGSYSGIVSGIEWATTNGMDVINMSLGGASGSTAMKQAVDNAYARGVVVVAAAGNSGSSGNTNTIGYPAKYDSVIAVGAVDSNSNRASFSSVGAELEVMAPGAGVYSTYPTNTYATLNGTSMASPHVAGAAALILSKHPNLSASQVRNRLSSTATYLGSSFYYGKGLINVEAAAQ = 0.0222
• Lysyl endopeptidase from Achromobacter lyticus (protein) GVSGSCNIDVVCPEGDGRRDIIRAVGAYSKSGTLACTGSLVNNTANDRKMYFLTAHHCGMGTASTAASIVVYWNYQNSTCRAPNTPASGANGDGSMSQTQSGSTVKATYATSDFTLLELNNAANPAFNLFWAGWDRRDQNYPGAIAIHHPNVAEKRISNSTSPTSFVAWGGGAGTTHLNVQWQPSGGVTEPGSSGSPIYSPEKRVLGQLHGGPSSCSATGTNRSDQYGRVFTSWTGGGAAASRLSDWLDPASTGAQFIDGLDSGGGTP = 0.0005

We next turn to a different protein, shown below.
Data request: If you can, please state the reported relative activity (initial increase in OD405) value of Thermostable alkaline protease BH0855 from Bacillus halodurans (protein) QTVPWGISFINTQQAHNRGIFGNGARVAVLDTGIASHPDLRIAGGASFISSEPSYHDNNGHGTHVAGTIAALNNSIGVLGVAPSADLYAVKVLDRNGSGSLASVAQGIEWAINNNMHIINMSLGSTSGSSTLELAVNRANNAGILLVGAAGNTGRQGVNYPARYSGVMAVAAVDQNGQRASFSTYGPEIEISAPGVNVNSTYTGNRYVSLSGTSMATPHVAGVAALVKSRYPSYTNNQIRQRINQTATYLGSPSLYGNGLVHAGRATQ .
Data returned: 0.088
